Quick reference for activity change, negative = inhibition among some compounds
target: D(1A) dopamine receptor (Homo sapiens); assay: Antagonist of Human D 1 Dopamine Receptor: qHTS; details: HEK293 TREx D1 cells, calcium flux, dopamine EC80; at 10 µM; stronger effect = lower value; further: on the % scale 0 is the no-effect control and ±100 the full control effect
The campaign covered roughly 360,000 compounds. About 11,000 (3.1%) were called active. Many of the other results were omitted from the sample, so actives are more common in it than they were.
State the answer as a number, implicitly in %.

CCc1ccc(S(=O)(=O)n2ccnc2)cc1    -16.9
CCN(CC)CCN(C(=O)c1ccc(N2C(=O)CCC2=O)cc1)c1nc2cc3c(cc2s1)OCO3    6.3
CCSc1ccccc1C(=O)Nc1ccc2c(c1)OCO2    10
COc1ccc(C(=O)NCCn2nc(C)cc2C)cc1OC1CCN(C(C)=O)CC1    1.96
COc1ccc(NS(=O)(=O)c2ccc(Oc3c(C#N)cccc3C#N)cc2)cc1    -44.8
CCC(=O)N1c2ccccc2CC1C(=O)N1CCN(c2ccccc2)CC1 (configuration not stated)    -1.25
O=C(Nc1ccc2nc(SCC(=O)N3CCCc4ccccc43)sc2c1)c1ccc(F)cc1    -9.64
CN(C)S(=O)(=O)N1CCC(Oc2cccc(C(=O)NCCCC3CCCC3)c2)CC1    -36.8

input: Return reported activity change, negative = inhibition. Input compound: Cc1cccc2c1-c1sc(C(=O)Nc3ccc(F)cc3F)cc1CO2
output: -14.5

input: Input Cc1ccc2nc(N(CCN(C)C)C(=O)C3=COCCO3)sc2c1 , output reported activity change, negative = inhibition.
output: -34.5

input: Give the measured activity change, negative = inhibition for CC(C)C(=O)Nc1cccc(C(=O)Nc2ccc3c(c2)OCO3)c1
output: -43.1

input: For the compound CC1CCN(c2ccc(S(=O)(=O)Nc3cc(C(=O)O)cc(C(=O)O)c3)cc2[N+](=O)[O-])CC1 , report activity change, negative = inhibition.
output: 21.6

input: Name the recorded activity change, negative = inhibition of the item COc1ccc(C(=O)NC2CC2)cc1OC1CCN(Cc2ccc(SC)cc2)CC1 in your answer.
output: -63.9
